- measurement_target: human collagen type I, acid soluble, extracted from placenta (Sigma C7774) (human) (UniProt P02452)
- Sequence (P02452 162-1218 limits assumed, chain 1 of 2): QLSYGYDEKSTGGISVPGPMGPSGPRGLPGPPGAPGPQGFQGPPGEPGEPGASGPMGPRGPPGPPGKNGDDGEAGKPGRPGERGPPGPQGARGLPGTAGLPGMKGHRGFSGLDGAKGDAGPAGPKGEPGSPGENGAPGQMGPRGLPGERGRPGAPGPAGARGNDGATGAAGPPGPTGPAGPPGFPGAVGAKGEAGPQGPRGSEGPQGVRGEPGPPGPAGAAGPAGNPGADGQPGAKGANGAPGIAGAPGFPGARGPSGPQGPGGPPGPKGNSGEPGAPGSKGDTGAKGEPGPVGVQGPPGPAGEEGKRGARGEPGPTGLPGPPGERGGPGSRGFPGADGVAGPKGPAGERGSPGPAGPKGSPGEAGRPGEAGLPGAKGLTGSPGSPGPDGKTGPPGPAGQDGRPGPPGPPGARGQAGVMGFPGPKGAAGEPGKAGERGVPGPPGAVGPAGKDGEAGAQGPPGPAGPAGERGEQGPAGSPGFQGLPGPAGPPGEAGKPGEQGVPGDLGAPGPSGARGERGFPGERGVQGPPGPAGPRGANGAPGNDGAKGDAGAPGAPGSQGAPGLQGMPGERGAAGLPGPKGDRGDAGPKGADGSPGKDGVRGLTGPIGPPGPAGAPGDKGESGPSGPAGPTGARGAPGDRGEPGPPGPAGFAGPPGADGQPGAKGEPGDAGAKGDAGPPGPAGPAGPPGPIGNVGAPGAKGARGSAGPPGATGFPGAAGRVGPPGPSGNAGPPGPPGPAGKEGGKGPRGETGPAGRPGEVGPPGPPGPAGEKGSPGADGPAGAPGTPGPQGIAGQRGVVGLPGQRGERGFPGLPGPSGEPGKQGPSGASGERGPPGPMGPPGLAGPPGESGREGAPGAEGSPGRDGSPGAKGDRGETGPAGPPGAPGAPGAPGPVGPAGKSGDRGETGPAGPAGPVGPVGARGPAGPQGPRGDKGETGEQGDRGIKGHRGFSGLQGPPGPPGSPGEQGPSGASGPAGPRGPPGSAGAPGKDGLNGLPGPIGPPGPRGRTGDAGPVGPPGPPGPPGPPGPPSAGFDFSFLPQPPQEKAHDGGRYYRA
- Sequence (P08123 80-1119 limits assumed, chain 2 of 2, further chain): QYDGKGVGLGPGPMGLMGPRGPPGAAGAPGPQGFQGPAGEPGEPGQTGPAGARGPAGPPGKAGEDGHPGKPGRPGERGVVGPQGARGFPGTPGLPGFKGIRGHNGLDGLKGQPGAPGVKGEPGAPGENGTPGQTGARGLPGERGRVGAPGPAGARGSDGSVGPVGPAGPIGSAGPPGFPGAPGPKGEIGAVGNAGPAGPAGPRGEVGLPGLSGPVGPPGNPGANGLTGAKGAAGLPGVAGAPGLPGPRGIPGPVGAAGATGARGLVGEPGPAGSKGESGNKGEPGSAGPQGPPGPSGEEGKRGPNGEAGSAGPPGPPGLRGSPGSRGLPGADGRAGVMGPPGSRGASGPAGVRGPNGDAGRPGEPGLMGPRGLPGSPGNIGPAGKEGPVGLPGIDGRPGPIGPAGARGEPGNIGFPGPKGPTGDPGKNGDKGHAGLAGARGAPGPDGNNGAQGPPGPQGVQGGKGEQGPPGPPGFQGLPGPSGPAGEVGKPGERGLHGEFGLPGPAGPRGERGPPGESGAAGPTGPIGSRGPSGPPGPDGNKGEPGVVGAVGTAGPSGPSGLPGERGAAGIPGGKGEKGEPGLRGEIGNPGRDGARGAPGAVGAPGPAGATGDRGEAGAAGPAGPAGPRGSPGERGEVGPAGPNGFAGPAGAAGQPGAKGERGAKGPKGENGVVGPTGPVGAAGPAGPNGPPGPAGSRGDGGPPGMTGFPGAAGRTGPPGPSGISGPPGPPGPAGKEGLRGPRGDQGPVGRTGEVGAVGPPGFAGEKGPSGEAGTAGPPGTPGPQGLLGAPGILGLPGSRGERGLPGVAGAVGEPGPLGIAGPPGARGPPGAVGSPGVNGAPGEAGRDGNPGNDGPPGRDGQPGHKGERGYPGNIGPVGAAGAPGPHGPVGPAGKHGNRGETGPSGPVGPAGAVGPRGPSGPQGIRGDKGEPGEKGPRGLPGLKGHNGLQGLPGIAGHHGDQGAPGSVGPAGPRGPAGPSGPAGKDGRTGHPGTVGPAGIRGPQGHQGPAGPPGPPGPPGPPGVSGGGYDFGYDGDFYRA
- test: dried collagen assay
Bridge positions count the residues as written; N and C are the ends. Square brackets hold non-standard residues; d marks the D form. Primed or numbered codes have the meaning given here. Ends that are not written are not given here. Gd^T″ = GdDTPA-thiourea
Classify: rule met when % bound is strictly less than 5%; rule not met when % bound is not.

In: % bound under 5%? Item: SWYCNNGSYGQWHCEHR (disulfide 4-14 (inferred)) [SEQ ID NO 80]
Out: rule not met

In: // repeat for AKKCWYNDGGHLRCRTL (disulfide 4-14 (inferred)) [SEQ ID NO 99] and report
Out: rule met

In: // repeat for QWTC[dS]GDEYTWHCNYE (disulfide 4-13 (inferred); not fully specified (N-terminus); printed as QWTCsGDEYTWHCNYE) [SEQ ID NO 168] and report
Out: rule met

In: // repeat for SWSCGGDHNAWKCQYS (disulfide 4-13 (inferred)) [SEQ ID NO 36] and report
Out: rule not met

In: // repeat for LWNCHGTDANWKCVLN (disulfide 4-13 (inferred)) [SEQ ID NO 37] and report
Out: rule not met

In: // repeat for Q[dW]TCSGDEYTWHCNYE (disulfide 4-13 (inferred); not fully specified (N-terminus, C-terminus); printed as QwTCSGDEYTWHCNYE) [SEQ ID NO 165] and report
Out: rule met

In: // repeat for QWT[dC]SGDEYTWHCNYE (disulfide 4-13 (inferred); not fully specified (N-terminus, C-terminus); printed as QWTcSGDEYTWHCNYE) [SEQ ID NO 167] and report
Out: rule met

In: // repeat for LWTCSMDRNYDWVCGEK (disulfide 4-14 (inferred)) [SEQ ID NO 82] and report
Out: rule met

In: // repeat for {Gd^T″}-GQWHCTTRFPHH[dT]CLYG (disulfide 5-14 (inferred); not fully specified (C-terminus)) [Compound ID 905] and report
Out: rule not met

In: // repeat for GWACNTTSKGDWECTNL (disulfide 4-14 (inferred)) [SEQ ID NO 83] and report
Out: rule met
